Reference for the values: patent US4945162A

// pIC50 lookup, one value per entry
TARGET_OR_SYSTEM: Dopamine Receptors (Rat Striatal Membranes) (Rattus norvegicus, UniProt P61169)
Sequence (P61169 whole entry): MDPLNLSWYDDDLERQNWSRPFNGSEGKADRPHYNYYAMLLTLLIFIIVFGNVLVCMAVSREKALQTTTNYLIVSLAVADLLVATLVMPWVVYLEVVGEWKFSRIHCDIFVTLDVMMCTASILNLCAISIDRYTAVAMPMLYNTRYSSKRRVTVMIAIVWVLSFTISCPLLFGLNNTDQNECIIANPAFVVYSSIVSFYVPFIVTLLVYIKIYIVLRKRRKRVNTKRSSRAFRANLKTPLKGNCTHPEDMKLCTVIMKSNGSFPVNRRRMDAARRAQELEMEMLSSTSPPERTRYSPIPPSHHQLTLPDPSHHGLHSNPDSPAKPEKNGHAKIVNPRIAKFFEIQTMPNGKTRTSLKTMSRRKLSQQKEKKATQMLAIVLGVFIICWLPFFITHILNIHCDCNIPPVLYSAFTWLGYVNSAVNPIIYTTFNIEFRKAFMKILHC
Lab note: report pIC50 as minus log10 of the concentration in molar units, number only.

CN1CN(c2ccccc2)C2(CCN(CCCC(=O)c3ccc(F)cc3I)CC2)C1=O = 7.26

Notebook: pull reported pIC50 for Dopamine Receptors (Rat Striatal Membranes) (Rattus norvegicus, UniProt P61169), entry CCCN1CN(c2ccccc2)C2(CCN(CCCC(=O)c3ccc(F)cc3I)CC2)C1=O
8.60

Request: O=C(CCCN1CCC2(CC1)C(=O)NCN2c1ccccc1)c1ccc(F)cc1I
7.96
